organism: Mus musculus; test: Maximum reduction in plasma triglyceride levels in KKA mice at a dosage of 0.005% in diet; assay type: functional
We begin with a simple list: items and their reported Reduction.
Field: numeric (%). Do not append units.

// solved cases for Reduction follow
                                   compound  unit_name  result
0  CCCc1nc(COc2ccc(CC3SC(=O)NC3=O)cc2)co1 (configuration not stated)          %      29
1  O=C1NC(=O)/C(=C/c2ccc(OCCc3csc(-c4ccccc4)n3)cc2)S1          %      57
2  Cc1oc(-c2ccccc2)nc1COc1ccc(/C=C2\SC(=O)NC2=O)cc1          %      40
3  Cc1nc(CCOc2ccc(CC3SC(=O)NC3=O)cc2)cs1 (configuration not stated)          %      52
4  CCc1nc(CCOc2ccc(CC3SC(=O)NC3=O)cc2)cs1 (configuration not stated)          %      37
5  O=C1NC(=O)C(Cc2ccc(OCc3csc(-c4cccnc4)n3)cc2)S1 (configuration not stated)          %      30
6  Cc1oc(C2CCCCC2)nc1C(O)COc1ccc(CC2SC(=O)NC2=O)cc1 (configuration not stated)          %      67
7  CCc1oc(CCOc2ccc(CC3SC(=O)NC3=O)cc2)nc1-c1ccccc1 (configuration not stated)          %      51
8  Cc1scnc1CCOc1ccc(CC2SC(=O)NC2=O)cc1 (configuration not stated)          %      45
9  Cc1nc(COc2ccc(CC3SC(=O)NC3=O)cc2)cs1 (configuration not stated)          %      30

// below: Reduction requested for another compound
Fill in Reduction for record Cc1oc(CCOc2ccc(CC3SC(=O)NC3=O)cc2)nc1CC(C)C (configuration not stated)
43
